Readings of Hardness for the listed compounds
assay: Evaluation of hardness (EZ-Test-20N hardness meter, needle penetration); type: physicochemical; conditions: UNICLEAR 100VG: 30% with 70% of the listed component; 25° C.

# compound, Hardness
rows = [
    ("CCC(COC(=O)CCCCCCCCCCCCCCC(C)C)(COC(=O)CCCCCCCCCCCCCCC(C)C)COC(=O)CCCCCCCCCCCCCCC(C)C [TTI, Trimethylolpropane triisostearate]", "0.01 N"),
    ("CC(C)CCCCCCCCCCCCCCC(=O)OCC(COC(=O)CCCCCCCCCCCCCCC(C)C)OC(=O)CCCCCCCCCCCCCCC(C)C", "0.03 N"),
    ("CCCCC(CC)C(=O)OCC(C)(C)COC(=O)C(CC)CCCC (stereo not shown) [NDO, Neopentylglycol diethylhexanoate]", "0.90 N"),
]

Now examine the next entry.
Given CC(C)CCCCCCCCCCCCCCC(=O)OCC(COC(=O)CCCCCCCCCCCCCCC(C)C)(COC(=O)CCCCCCCCCCCCCCC(C)C)COC(=O)CCCCCCCCCCCCCCC(C)C [PTI, Pentaerythrityl tetraisostearate] , state its recorded Hardness. 0.01 N

---

assay: Exudation (45° C. for 2 hours, then 25° C. for 3 hours, visual); assay type: physicochemical; set-up: key: A: When the amount of exudation was small and there were no oil droplets; B: when a slight degree of exudation was observed but the exudation went back in the temperature-controlled room at 25° C.; when the amount of exudation was large and the exudation did not go back even in the temperature-controlled room at 25° C; details: UNICLEAR 100VG: 30% with 70% of the listed component
endpoint: Exudation properties

Below, each entry is followed by its recorded Exudation properties result.
# molecule, test-value
records = [
    ("CCCCC(CC)C(=O)OCC(COC(=O)C(CC)CCCC)(COC(=O)C(CC)CCCC)COC(=O)C(CC)CCCC (stereo not drawn) [PTO, Pentaerythrityl tetraethylhexanoate]", "B"),
    ("CC(C)CCCCCCCCCCCCCCC(=O)OCC(COC(=O)CCCCCCCCCCCCCCC(C)C)OC(=O)CCCCCCCCCCCCCCC(C)C", "B"),
    ("CC(C)CCCCCCCCCCCCCCC(=O)OC(C)C [IPIS, Isopropyl isostearate]", "A"),
    ("CC(C)CCCCCCCCCCOC(=O)CCCCCC(C)C [KAK139, Isotridecyl isononanoate]", "A"),
]

Given CCC(COC(=O)CCCCCCCCCCCCCCC(C)C)(COC(=O)CCCCCCCCCCCCCCC(C)C)COC(=O)CCCCCCCCCCCCCCC(C)C [TTI, Trimethylolpropane triisostearate] , state its recorded Exudation properties. B

Given CC(C)CCCCCCCCCCCCCCCOC(=O)CCCCCCCCCCCCCCC(C)C [ISIS, Isostearyl isostearate] , state its recorded Exudation properties. B

Given CC(C)CCCCCCCCCCCCCCCOC(=O)CC(O)C(=O)OCCCCCCCCCCCCCCCC(C)C (stereo not drawn) [DIS, Diisostearyl malate] , state its recorded Exudation properties. A

Given CC(C)CCCCCCCCCCCCCCC(=O)OCC(COC(=O)CCCCCCCCCCCCCCC(C)C)(COC(=O)CCCCCCCCCCCCCCC(C)C)COC(=O)CCCCCCCCCCCCCCC(C)C [PTI, Pentaerythrityl tetraisostearate] , state its recorded Exudation properties. B

Given CC(C)CCCC(C)CCCC(C)CCCCC(C)CCCC(C)CCCC(C)C (stereo not drawn) , state its recorded Exudation properties. A

Given CCCCC(CC)C(=O)OCC(COC(=O)C(CC)CCCC)OC(=O)C(CC)CCCC (stereo not drawn) , state its recorded Exudation properties. B

Given CCCCCCCCCCCCCCCCOC(=O)C(CC)CCCC (stereo not drawn) [CEH, Cetyl ethylhexanoate] , state its recorded Exudation properties. A

Given CCCCC(CC)C(=O)OCC(C)(C)COC(=O)C(CC)CCCC (stereo not drawn) [NDO, Neopentylglycol diethylhexanoate] , state its recorded Exudation properties. A

The origin of these recorded values is patent US7993662B2.
